Test system: human Factor 7 mRNA
Assay: Dose-dependent antisense inhibition of human Factor 7 in HepB3 cells, lipofectin
Assay type: cell-based
Conditions: 12.5 nM, HepB3 cells, approx. 16 hours (Table 14)
Strand notation (5' to 3'): a small letter for the sugar, then the base; units joined by * are phosphorothioate-linked, units joined directly phosphodiester-linked; [ ] holds rarer units or linkages, { } end groups; capitals alone tell only the bases. e = 2'-O-(2-methoxyethyl) (MOE); [5mC] = 5-methylcytosine; d = 2'-deoxy (DNA)
# label = 1.0 if percent inhibition of Factor 7 mRNA, relative to untreated control cells >= 50% else 0.0

[
  {
    "SUBSTANCE": "422150 (antisense eG*e[5mC]*eA*dT*dG*dG*dT*dG*dA*dT*dG*d[5mC]*dT*dT*d[5mC]*dT*dG*eA*eA*eT) [compound 422150]",
    "DISCRETE LABEL": 0.0
  },
  {
    "SUBSTANCE": "422183 (antisense eG*e[5mC]*eG*d[5mC]*d[5mC]*dA*d[5mC]*d[5mC]*d[5mC]*dG*d[5mC]*d[5mC]*dG*dG*d[5mC]*dT*d[5mC]*eT*eG*e[5mC]) [compound 422183]",
    "DISCRETE LABEL": 1.0
  },
  {
    "SUBSTANCE": "422215 (antisense eG*eT*eT*d[5mC]*dT*dG*d[5mC]*dA*dG*dG*dA*dG*d[5mC]*dG*dG*d[5mC]*d[5mC]*eT*eA*eA) [compound 422215]",
    "DISCRETE LABEL": 1.0
  },
  {
    "SUBSTANCE": "422296 (antisense e[5mC]*e[5mC]*dG*dA*dG*dT*dT*d[5mC]*dT*dG*d[5mC]*dA*dG*dG*dA*eG*e[5mC]*eG*eG*e[5mC]) [compound 422296]",
    "DISCRETE LABEL": 0.0
  }
]

[ask] # check: percent inhibition of Factor 7 mRNA, relative to untreated control cells of 422152 (antisense eA*eT*eG*d[5mC]*dA*dT*dG*dG*dT*dG*dA*dT*dG*d[5mC]*dT*dT*d[5mC]*eT*eG*eA) [compound 422152] is greater than or equal to 50%
[reply] 0.0

---

System: human Factor 7 mRNA
Experiment: Dose-dependent antisense inhibition of human Factor 7 in HepB3 cells, electroporation
Format: cell-based
Conditions: 6.25 μM, approx. 16 hours (Table 16, Example 8 confirmation)
Protocol: The gapmers were also transfected via electroporation and their dose-dependent inhibition of human Factor 7 mRNA was measured. […] After a treatment period of approximately 16 hours, RNA was isolated from the cells and Factor 7 mRNA levels were measured by quantitative real-time PCR. […] Factor 7 mRNA levels were adjusted according to total RNA content, as measured by RIBOGREEN®. […]
Strand notation (5' to 3'): a small letter for the sugar, then the base; units joined by * are phosphorothioate-linked, units joined directly phosphodiester-linked; [ ] holds rarer units or linkages, { } end groups; capitals alone tell only the bases. e = 2'-O-(2-methoxyethyl) (MOE); [5mC] = 5-methylcytosine; d = 2'-deoxy (DNA)
MEASURED PARAMETER: percent inhibition of Factor 7 mRNA, relative to untreated control cells (%)
# unit: % | format: bare number

[
  {
    "SUBSTANCE": "422183 (antisense eG*e[5mC]*eG*d[5mC]*d[5mC]*dA*d[5mC]*d[5mC]*d[5mC]*dG*d[5mC]*d[5mC]*dG*dG*d[5mC]*dT*d[5mC]*eT*eG*e[5mC]) [compound 422183]",
    "READOUT UNIT": "%",
    "ENDPOINT VALUE": 3
  },
  {
    "SUBSTANCE": "422229 (antisense eA*eT*dG*d[5mC]*dA*dT*dG*dG*dT*dG*dA*dT*dG*d[5mC]*dT*eT*e[5mC]*eT*eG*eA) [compound 422229]",
    "READOUT UNIT": "%",
    "ENDPOINT VALUE": 45
  },
  {
    "SUBSTANCE": "422150 (antisense eG*e[5mC]*eA*dT*dG*dG*dT*dG*dA*dT*dG*d[5mC]*dT*dT*d[5mC]*dT*dG*eA*eA*eT) [compound 422150]",
    "READOUT UNIT": "%",
    "ENDPOINT VALUE": 31
  },
  {
    "SUBSTANCE": "422087 (antisense e[5mC]*eA*eT*eG*e[5mC]*dA*dT*dG*dG*dT*dG*dA*dT*dG*d[5mC]*eT*eT*e[5mC]*eT*eG) [compound 422087]",
    "READOUT UNIT": "%",
    "ENDPOINT VALUE": 38
  },
  {
    "SUBSTANCE": "422142 (antisense eG*eA*eG*eT*eT*d[5mC]*dT*dG*d[5mC]*dA*dG*dG*dA*dG*d[5mC]*eG*eG*e[5mC]*e[5mC]*eT) [compound 422142]",
    "READOUT UNIT": "%",
    "ENDPOINT VALUE": 47
  }
]

Next substance, please.
[ask] For 407939 (antisense eT*eG*e[5mC]*eA*eG*d[5mC]*d[5mC]*d[5mC]*dG*dG*d[5mC]*dA*d[5mC]*d[5mC]*d[5mC]*eA*eG*e[5mC]*eG*eA) [compound 407939] , what is its reported percent inhibition of Factor 7 mRNA, relative to untreated control cells?
[reply] 60

---

Tested on: human Factor 7 mRNA
Experiment: Dose-dependent antisense inhibition of human Factor 7 in HepB3 cells, electroporation
Type: cell-based
Details: 25 μM, approx. 16 hours (Table 16, Example 8 confirmation)
Strand notation (5' to 3'): a small letter for the sugar, then the base; units joined by * are phosphorothioate-linked, units joined directly phosphodiester-linked; [ ] holds rarer units or linkages, { } end groups; capitals alone tell only the bases. e = 2'-O-(2-methoxyethyl) (MOE); [5mC] = 5-methylcytosine; d = 2'-deoxy (DNA)
# label = true if percent inhibition of Factor 7 mRNA, relative to untreated control cells >= 70% else false

[
  {
    "SUBSTANCE": "422229 (antisense eA*eT*dG*d[5mC]*dA*dT*dG*dG*dT*dG*dA*dT*dG*d[5mC]*dT*eT*e[5mC]*eT*eG*eA) [compound 422229]",
    "DISCRETE LABEL": "true"
  },
  {
    "SUBSTANCE": "422183 (antisense eG*e[5mC]*eG*d[5mC]*d[5mC]*dA*d[5mC]*d[5mC]*d[5mC]*dG*d[5mC]*d[5mC]*dG*dG*d[5mC]*dT*d[5mC]*eT*eG*e[5mC]) [compound 422183]",
    "DISCRETE LABEL": "false"
  },
  {
    "SUBSTANCE": "422296 (antisense e[5mC]*e[5mC]*dG*dA*dG*dT*dT*d[5mC]*dT*dG*d[5mC]*dA*dG*dG*dA*eG*e[5mC]*eG*eG*e[5mC]) [compound 422296]",
    "DISCRETE LABEL": "true"
  },
  {
    "SUBSTANCE": "422087 (antisense e[5mC]*eA*eT*eG*e[5mC]*dA*dT*dG*dG*dT*dG*dA*dT*dG*d[5mC]*eT*eT*e[5mC]*eT*eG) [compound 422087]",
    "DISCRETE LABEL": "true"
  }
]

Continue with the substance presented below.
[ask] # check: percent inhibition of Factor 7 mRNA, relative to untreated control cells of 407939 (antisense eT*eG*e[5mC]*eA*eG*d[5mC]*d[5mC]*d[5mC]*dG*dG*d[5mC]*dA*d[5mC]*d[5mC]*d[5mC]*eA*eG*e[5mC]*eG*eA) [compound 407939] is greater than or equal to 70%
[reply] true

---

Tested on: human Factor 7 mRNA
Assay: Dose-dependent antisense inhibition of human Factor 7 in HepB3 cells, electroporation
Assay type: cell-based
Conditions: 6.25 μM, approx. 16 hours (Table 15, Example 7)
Strand notation (5' to 3'): a small letter for the sugar, then the base; units joined by * are phosphorothioate-linked, units joined directly phosphodiester-linked; [ ] holds rarer units or linkages, { } end groups; capitals alone tell only the bases. e = 2'-O-(2-methoxyethyl) (MOE); [5mC] = 5-methylcytosine; d = 2'-deoxy (DNA)
Below, each entry is listed alongside its reported percent inhibition of Factor 7 mRNA, relative to untreated control cells.

[
  {
    "SUBSTANCE": "422142 (antisense eG*eA*eG*eT*eT*d[5mC]*dT*dG*d[5mC]*dA*dG*dG*dA*dG*d[5mC]*eG*eG*e[5mC]*e[5mC]*eT) [compound 422142]",
    "STUDY SYSTEM": "human Factor 7 mRNA",
    "ENDPOINT VALUE": "47%"
  },
  {
    "SUBSTANCE": "422087 (antisense e[5mC]*eA*eT*eG*e[5mC]*dA*dT*dG*dG*dT*dG*dA*dT*dG*d[5mC]*eT*eT*e[5mC]*eT*eG) [compound 422087]",
    "STUDY SYSTEM": "human Factor 7 mRNA",
    "ENDPOINT VALUE": "26%"
  },
  {
    "SUBSTANCE": "422292 (antisense eG*eT*dT*d[5mC]*dT*dG*d[5mC]*dA*dG*dG*dA*dG*d[5mC]*dG*dG*e[5mC]*e[5mC]*eT*eA*eA) [compound 422292]",
    "STUDY SYSTEM": "human Factor 7 mRNA",
    "ENDPOINT VALUE": "25%"
  },
  {
    "SUBSTANCE": "422217 (antisense eG*eA*eG*dT*dT*d[5mC]*dT*dG*d[5mC]*dA*dG*dG*dA*dG*d[5mC]*dG*dG*e[5mC]*e[5mC]*eT) [compound 422217]",
    "STUDY SYSTEM": "human Factor 7 mRNA",
    "ENDPOINT VALUE": "19%"
  }
]

[ask] For 422215 (antisense eG*eT*eT*d[5mC]*dT*dG*d[5mC]*dA*dG*dG*dA*dG*d[5mC]*dG*dG*d[5mC]*d[5mC]*eT*eA*eA) [compound 422215] , what is its reported percent inhibition of Factor 7 mRNA, relative to untreated control cells?
[reply] 9%
